Tested on: Rattus norvegicus
MEASUREMENT_DESCRIPTION: Mean excretion of potassium in conscious rats at a dose of 3.0 mg/kg given orally
Format: ADME, organism-based
Design: dose 3 mg/kg, route oral
RUN_PARAMETERS: in vivo, po
QUANTITY_NAME: Mean excretion of K+ (m equiv)
Give bare numbers, in m equiv.

For every record below, what is its Mean excretion of K+?
1. NS(=O)(=O)c1cc(C(=O)O)c(NCc2ccco2)cc1Cl [FUROSEMIDE]
2. COc1ccc(C(CN(C)C)c2nnc3n2-c2ccc(Cl)cc2C(c2ccccc2)=NC3)cc1 (stereo not given)
3. COc1cccc(C(CN(C)C)c2nnc3n2-c2ccc(Cl)cc2C(c2ccccc2)=NC3)c1 (stereo not given)
4. CN(C)CCc1nnc2n1-c1ccc(Br)cc1C(c1ccccn1)=NC2
5. NS(=O)(=O)c1cc2c(cc1Cl)NCNS2(=O)=O [HYDROCHLOROTHIAZIDE]
6. CSc1ccc2c(c1)C(c1ccccc1)=NCc1nnc(C(CN(C)C)c3ccccc3)n1-2 (stereo not given)

Ans.
0.27
0.23
0.17
0.39
0.34
0.36

----------
Tested on: Rattus norvegicus
MEASUREMENT_DESCRIPTION: Mean excretion of potassium in conscious rats at a dose of 10 mg/kg given orally
Assay type: ADME, organism-based
Parameters: dose 10 mg/kg, route oral
RUN_PARAMETERS: in vivo, po
QUANTITY_NAME: Mean excretion of K+ (m equiv)
Give bare numbers, in m equiv.

Some solved cases for reference:
CN(C)CCc1nnc2n1-c1ccc(Br)cc1C(c1ccccc1)=NC2 :: 0.21
COc1cccc(C(CN(C)C)c2nnc3n2-c2ccc(Cl)cc2C(c2ccccc2)=NC3)c1 (stereo not given) :: 0.17
CN(C)CC(c1ccccc1)c1nnc2n1-c1ccc(I)cc1C(c1ccccc1)=NC2 (stereo not given) :: 0.19
CN(C)CC(c1ccccc1)c1nnc2n1-c1ccc(Cl)cc1C(c1ccccc1)=NC2 (stereo not given) :: 0.22
CN(C)CCc1nnc2n1-c1ccc(Br)cc1C(c1ccccn1)=NC2 :: 0.33
CN(C)CC(c1ccccc1Cl)c1nnc2n1-c1ccc(Cl)cc1C(c1ccccc1)=NC2 (stereo not given) :: 0.21

For every record below, what is its Mean excretion of K+?
1. CN(C)CC(c1ccccc1)c1nnc2n1-c1ccc(Br)cc1C(c1ccccc1)=NC2 (stereo not given)
2. Nc1nc(N)c2nc(-c3ccccc3)c(N)nc2n1
3. CSc1ccc2c(c1)C(c1ccccc1)=NCc1nnc(C(CN(C)C)c3ccccc3)n1-2 (stereo not given)
4. COc1ccccc1C(CN(C)C)c1nnc2n1-c1ccc(Cl)cc1C(c1ccccc1)=NC2 (stereo not given)

Ans.
1: 0.17; 2: 0.08; 3: 0.23; 4: 0.22

For every record below, what is its Mean excretion of K+?
1. NS(=O)(=O)c1cc(C(=O)O)c(NCc2ccco2)cc1Cl [FUROSEMIDE]
2. COc1ccc(C(CN(C)C)c2nnc3n2-c2ccc(Cl)cc2C(c2ccccc2)=NC3)cc1 (stereo not given)
3. CC1N=C(c2ccccc2)c2cc(Cl)ccc2-n2c1nnc2C(CN(C)C)c1ccccc1 (stereo not given)
4. NS(=O)(=O)c1cc2c(cc1Cl)NCNS2(=O)=O [HYDROCHLOROTHIAZIDE]
5. I.NCC(c1ccccc1)c1nnc2n1-c1ccc(Cl)cc1C(c1ccccc1)=NC2 (stereo not given)

Ans.
[0.34, 0.19, 0.22, 0.31, 0.27]

meta.source: ChEMBL document CHEMBL1124476
